# target.of.assay: human S1P3 receptor (Homo sapiens, UniProt Q99500)
# Construct: membranes
# Sequence (Q99500 whole entry): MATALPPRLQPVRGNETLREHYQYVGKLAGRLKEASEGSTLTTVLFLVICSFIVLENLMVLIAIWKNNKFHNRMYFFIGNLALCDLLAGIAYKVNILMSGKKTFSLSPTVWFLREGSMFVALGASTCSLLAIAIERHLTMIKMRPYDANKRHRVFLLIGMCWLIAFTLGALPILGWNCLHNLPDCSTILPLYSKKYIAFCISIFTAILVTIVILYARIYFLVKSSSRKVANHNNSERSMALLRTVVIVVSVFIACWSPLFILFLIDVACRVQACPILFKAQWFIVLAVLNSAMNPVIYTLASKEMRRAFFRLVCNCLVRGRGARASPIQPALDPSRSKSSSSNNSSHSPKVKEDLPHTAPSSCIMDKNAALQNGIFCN
# test.description: S1P3 GTPγS binding assay (and alternative method)
# condition.notes: in one of the above S1P3 GTPγS binding assays (first or alternative method, RBL membranes)
Counter-ions that a name gives are not always drawn.
property.label: EC50 (µM)
Answers are plain numbers, in µM.

Quickly give me recorded EC50 for CC(C)Oc1ccc(-c2nc(-c3cccc4c(N5CCC(C(=O)O)CC5)nccc34)no2)cc1Cl [Example 4, lithium salt] 3.16
